Source: patent EP4635500A1

# subject-of-test: OXA-48 (Klebsiella pneumoniae)
# Sequence (Q6XEC0 23-265 limits assumed): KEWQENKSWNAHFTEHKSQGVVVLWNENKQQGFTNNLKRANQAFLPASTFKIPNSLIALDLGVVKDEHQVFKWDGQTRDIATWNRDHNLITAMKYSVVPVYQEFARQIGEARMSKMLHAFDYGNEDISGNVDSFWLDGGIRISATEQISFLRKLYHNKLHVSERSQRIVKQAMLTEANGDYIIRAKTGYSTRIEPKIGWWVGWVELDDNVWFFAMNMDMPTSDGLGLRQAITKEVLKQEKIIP
# method-description: Ki,app against β-lactamase (Example 1, Table 1)
# Format: biochemical
pKi: −log10 of the molar value.

>  <given-smiles>
CC1(C)[C@H](C(=O)O)N2C(=O)C[C@H]2S1(=O)=O

>  <subject-of-test>
OXA-48 (Klebsiella pneumoniae)

>  <pKi>
6.58

$$$$

====

MIC by entry:
# Tested on: Enterobacterales
# method-description: MIC, broth microdilution, CDC/FDA Antibiotic Resistance Isolate Bank (Example 7, Tables 8, 11, 12)
# Type: cell-based
# conditions-used: Citrobacter freundii, KUB No. 5654, AR Bank # 157; read-out: MIC

>  <compound>
O=C(O)c1cn(C2CC2)c2cc(N3CCNCC3)c(F)cc2c1=O [Ciprofloxacin, ciprofloxacin]

>  <subject-of-test>
Enterobacterales

>  <MIC>
> 64 µg/mL

$$$$
>  <compound>
CO/N=C(\C(=O)N[C@@H]1C(=O)N2C(C(=O)[O-])=C(C[n+]3ccn4ncccc43)CS[C@H]12)c1nsc(N)n1 [Cefozopran, cefozopran]

>  <subject-of-test>
Enterobacterales

>  <MIC>
> 64 µg/mL

$$$$
>  <compound>
CC(C)(O/N=C(\C(=O)N[C@@H]1C(=O)N2C(C(=O)[O-])=C(C[N+]3(CCNC(=O)c4ccc(O)c(O)c4Cl)CCCC3)CS[C@H]12)c1csc(N)n1)C(=O)O [Cefiderocol, cefiderocol]

>  <subject-of-test>
Enterobacterales

>  <MIC>
1 µg/mL

$$$$
